Hey, just so you know, these numbers are from the supplement of paper PMC10899765.

Test system: MCF10A
TEST_NAME: 5+ nucleoli phenotype percent effect (relative to siNT 0% and siKIF11 100%); higher = more cells with five or more nucleoli
CONDITION_SUMMARY: 20 nM; 72 h
EXPERIMENTAL_ENDPOINT: 5+ nucleoli phenotype percent effect (%)
Just the number in %, nothing appended.

5+ nucleoli phenotype percent effect measured on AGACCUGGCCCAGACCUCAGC [hsa-miR-631] = -2.57

5+ nucleoli phenotype percent effect measured on AUCAAGGAUCUUAAACUUUGCC [hsa-miR-561-5p] = -9.66

5+ nucleoli phenotype percent effect measured on CAUGGGAGUUCGGGGUGGUUGC [hsa-miR-6871-5p] = 5.7

5+ nucleoli phenotype percent effect measured on UAUGGAGGUUCUAGACCAUGUU [hsa-miR-4802-5p] = 7.79

5+ nucleoli phenotype percent effect measured on UAGUACUGUGCAUAUCAUCUAU [hsa-miR-1278] = -12.8

5+ nucleoli phenotype percent effect measured on AAUCCACGCUGAGCUUGGCAUC [hsa-miR-5092] = -4.16

5+ nucleoli phenotype percent effect measured on AGGGGCUGGCUUUCCUCUGGUC [hsa-miR-185-3p] = -3.46

5+ nucleoli phenotype percent effect measured on AGUGGCACAUGUUUGUUGUGAG [hsa-miR-891a-3p] = -11.2

5+ nucleoli phenotype percent effect measured on AUGUCCAUAUUAUGGGUUAGU [hsa-miR-3912-5p] = 83.1

5+ nucleoli phenotype percent effect measured on CCUGUCUGUGCCUGCUGUACA [hsa-miR-3120-5p] = 4.71

5+ nucleoli phenotype percent effect measured on UUGAGGAGACAUGGUGGGGGCC [hsa-miR-4689] = 2.8

5+ nucleoli phenotype percent effect measured on UGGGAGAGAGGACUGUGAGGC [hsa-miR-8085] = -1.75

5+ nucleoli phenotype percent effect measured on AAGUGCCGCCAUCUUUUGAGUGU [hsa-miR-371a-3p] = -0.0057

5+ nucleoli phenotype percent effect measured on UCUCACACAGAAAUCGCACCCGU [hsa-miR-342-3p] = -4.22

5+ nucleoli phenotype percent effect measured on GUAGGUGACAGUCAGGGGCGG [hsa-miR-6800-5p] = -0.87

5+ nucleoli phenotype percent effect measured on CUGGCGGAGCCCAUUCCAUGCCA [hsa-miR-4730] = -43.2

5+ nucleoli phenotype percent effect measured on CGGGGAGAGAACGCAGUGACGU [hsa-miR-3175] = -3.98

5+ nucleoli phenotype percent effect measured on UGAAGCCAGCUCUGGUCUGGGC [hsa-miR-4786-3p] = -24

5+ nucleoli phenotype percent effect measured on UGAGGGAGGAGGUUGGGUA [hsa-miR-6133] = -0.793

5+ nucleoli phenotype percent effect measured on UCAGCAGGCAGGCUGGUGCAGC [hsa-miR-3619-5p] = -36.5

5+ nucleoli phenotype percent effect measured on UGCGGGGACAGGCCAGGGCAUC [hsa-miR-4749-5p] = -24.9

5+ nucleoli phenotype percent effect measured on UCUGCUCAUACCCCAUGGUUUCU [hsa-miR-767-3p] = 54.2

5+ nucleoli phenotype percent effect measured on CCUGCAGCGACUUGAUGGCUUCC [hsa-miR-1184] = -8.51

5+ nucleoli phenotype percent effect measured on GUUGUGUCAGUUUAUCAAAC [hsa-miR-599] = 29.3
